EXPERIMENTAL_TARGET: human recombinant COX-2 (Homo sapiens)
Sequence (P35354 18-604): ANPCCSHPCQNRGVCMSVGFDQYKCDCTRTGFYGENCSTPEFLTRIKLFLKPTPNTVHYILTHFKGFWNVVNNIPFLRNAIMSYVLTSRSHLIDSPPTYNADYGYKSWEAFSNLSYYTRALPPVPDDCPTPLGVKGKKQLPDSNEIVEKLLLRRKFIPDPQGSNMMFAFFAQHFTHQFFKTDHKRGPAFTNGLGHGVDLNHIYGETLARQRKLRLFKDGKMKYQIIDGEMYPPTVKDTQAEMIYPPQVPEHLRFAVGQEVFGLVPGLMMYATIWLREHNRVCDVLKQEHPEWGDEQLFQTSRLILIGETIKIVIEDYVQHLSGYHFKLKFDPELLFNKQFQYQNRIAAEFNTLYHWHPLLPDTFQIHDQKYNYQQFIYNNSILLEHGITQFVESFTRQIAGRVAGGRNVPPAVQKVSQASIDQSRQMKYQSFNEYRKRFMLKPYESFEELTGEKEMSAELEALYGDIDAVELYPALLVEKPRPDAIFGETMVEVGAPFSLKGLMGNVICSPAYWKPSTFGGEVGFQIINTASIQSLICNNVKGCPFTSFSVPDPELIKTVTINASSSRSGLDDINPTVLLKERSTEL
ASSAY_SUMMARY: COX colorimetric inhibitor screening assay, COX-2
PROPERTY_LABEL: pIC50
Conceptually, pIC50 converts a concentration in mol/L into minus its log10.

// solved cases for pIC50 follow
{"INPUT_SMILES": "O=C(C1=C(O)c2ccccc2S(=O)(=O)N1)c1ccccc1", "MEASURED": 4.26}
{"INPUT_SMILES": "Cc1ccc(C(=O)C2=C(O)c3ccccc3S(=O)(=O)N2)cc1", "MEASURED": 4.26}
{"INPUT_SMILES": "COc1ccc(C2=C3C(=O)c4ccccc4S(=O)(=O)N3CCCO2)cc1", "MEASURED": 4.24}
{"INPUT_SMILES": "O=C1C2=C(c3ccccc3)OCCN2S(=O)(=O)c2ccccc21", "MEASURED": 4.24}
{"INPUT_SMILES": "O=C1C2=C(c3ccccc3)OCCCCN2S(=O)(=O)c2ccccc21", "MEASURED": 4.27}

Lab note: measured pIC50 of O=C(C1=C(O)c2ccccc2S(=O)(=O)N1)c1ccc(Cl)cc1 was 4.25

The molecule identified as O=C1C2=C(c3ccc(Br)cc3)OCCCN2S(=O)(=O)c2ccccc21 registered its pIC50 at 4.02

pIC50 reported for this molecule O=C1C2=C(c3ccc(Cl)cc3)OCCCN2S(=O)(=O)c2ccccc21 : 4.03

// recorded pIC50 for Cc1ccc(C2=C3C(=O)c4ccccc4S(=O)(=O)N3CCCO2)cc1 : 4.03

Lookup result for O=C1C2=C(c3ccccc3)OCCCN2S(=O)(=O)c2ccccc21 ; measured pIC50: 4.05
